- protocol_description: Compatibility of co-solvent carrier with hyaluronic acid hydrogel (visually observed turbidity)
- Format: physicochemical
- cond: solvent added in 200 μl aliquots to 2 ml gel of 20 mg/ml hyaluronic acid in water; maximum added 5 ml
endpoint_name: Max. amt. added to HA Gel without turbidity (ml in 2 ml)
Report the figure in ml in 2 ml without appending any unit label.

smiles_data: CCO
result_number: 4

Shift focus to the following entry.
q: Which value of Max. amt. added to HA Gel without turbidity has been reported for CCOCCOCCO in the records?
a: 2

###

- protocol_description: physchem
- cond: PEG 200:water co-solvent mixture, aqueous with cosolvent or surfactant or cyclodextrin, thermodynamic from solid
endpoint_name: solubility at 16 h

q: Which value of solubility at 16 h has been reported for CC(=O)O[C@H]1C(=O)[C@@]2(C)[C@H]([C@H](OC(=O)c3ccccc3)[C@]3(O)C[C@H](OC(=O)[C@H](O)[C@@H](NC(=O)c4ccccc4)c4ccccc4)C(C)=C1C3(C)C)[C@]1(OC(C)=O)CO[C@@H]1C[C@@H]2O in the records?
a: 5000 to 10000 µg/mL
